Listing of entries alongside the reported ε × F.
TEST_DESCRIPTION: Photophysical properties of dyes in various solvents (absorbance, emission, quantum yield)
Assay type: physicochemical
Design: unit not given here
CONDITION_NOTES: solvent BuOH
Give the figure by itself; no unit, no explanation.

Return reported ε × F; argument: CCN1\C(=C/C=C/C=C2/C(=O)c3ccccc3S2(=O)=O)Sc2ccccc21 [dye 2a]
20000

Return reported ε × F; argument: CN1C(=O)C(=C/C=C/C=C2\N(C)c3ccccc3C2(C)C)C(=O)N(C)C1=S [dye 3a]
116000

Return reported ε × F; argument: CCN1/C(=C\C=C\C=C2C(=O)N(C)C(=S)N(C)C2=O)Sc2ccccc21 [dye 1b]
49000

Return reported ε × F; argument: CN1\C(=C/C=C/C=C2/C(=O)c3ccccc3S2(=O)=O)C(C)(C)c2ccccc21 [dye 4a]
72000
